This collection of values is drawn from patent US20250281514A1.

- experiment.description: Safety (body weight, tolerance) in the HPAF-II model
- Assay type: in vivo, Balb/c nude female mice
- run.conditions: Group 2, 60 mg/kg i.p. QD×5/week×2 weeks; day 17
measured.endpoint: Body weight (g)
Please reply with the bare figure in g and do not write the unit itself.

Recorded Body weight of O=P1(NCCCl)OCCCN1CCCl (stereo not shown) [Ifosfamide, reference compound] , please.
24.8

* * *

- experiment.description: Safety (body weight, tolerance) in the HPAF-II model
- Type: in vivo, Balb/c nude female mice
- run.conditions: Group 4, 8 mg/kg i.v. QW×3; day 24
measured.endpoint: Body weight (g)
Please reply with the bare figure in g and do not write the unit itself.

Recorded Body weight of O=[N+]([O-])c1ccc(C(OP(=O)(N2CC2)N2CC2)C(F)(F)F)cc1Oc1ccc(-c2ccc(F)cc2)c(F)c1 (stereo not shown) , please.
25.3

* * *

- experiment.description: Safety (body weight, tolerance) in the HPAF-II model
- Format: in vivo, Balb/c nude female mice
- run.conditions: Group 3, 4 mg/kg i.v. QD×5, 2 days off, 2 weeks off, QD×5; day 14
measured.endpoint: Body weight (g)
Please reply with the bare figure in g and do not write the unit itself.

Recorded Body weight of O=[N+]([O-])c1ccc(C(OP(=O)(N2CC2)N2CC2)C(F)(F)F)cc1Oc1ccc(-c2ccc(F)cc2)c(F)c1 (stereo not shown) , please.
24.5

* * *

- experiment.description: Safety (body weight, tolerance) in the HPAF-II model
- Type: in vivo, Balb/c nude female mice
- run.conditions: Group 3, 4 mg/kg i.v. QD×5, 2 days off, 2 weeks off, QD×5; day 24
- Description: Balb/c nude female mice were subcutaneously inoculated with human-derived pancreatic cancer HPAF-II cells so as to establish a subcutaneous transplantation model of human-derived pancreatic cancer. […]
measured.endpoint: Body weight (g)
Please reply with the bare figure in g and do not write the unit itself.

Recorded Body weight of O=[N+]([O-])c1ccc(C(OP(=O)(N2CC2)N2CC2)C(F)(F)F)cc1Oc1ccc(-c2ccc(F)cc2)c(F)c1 (stereo not shown) , please.
25.2

* * *

- experiment.description: Safety (body weight, tolerance) in the HPAF-II model
- Type: in vivo, Balb/c nude female mice
- run.conditions: Group 5, 1 mg/kg i.v. QD×5, 2 days off, 2 weeks off, QD×5; day 14
measured.endpoint: Body weight (g)
Please reply with the bare figure in g and do not write the unit itself.

Recorded Body weight of C[C@@H](OP(=O)(N1CC1)N1CC1)c1ccc([N+](=O)[O-])c(Oc2cccc(C(=O)N(C)C)c2)c1 [AST-3424] , please.
23.9
